Measured melting point accompanies every entry in the list below.

COc1ccc(C)cc1NC(=O)Nc1ccc(C2=CCN(C(=O)Nc3ncccc3C)CC2)cc1 : 195 to 198 °C
COc1ccc(C)cc1NC(=O)Nc1ccc(N2CCN(C(=O)C(O)c3ccccc3Cl)CC2)cc1 (stereo not shown) : 118 to 120 °C
O=C(Nc1ccc(C2CCN(C(=O)Nc3ccc(OCCO)cc3Cl)CC2)cc1)Nc1ccccc1F : 166 to 171 °C
COc1cc(NC(=O)Nc2ccc(C3=CCN(C(=O)Nc4ccc(OCCO)cc4Cl)CC3)cc2)cc(OC)c1 : 135 to 139 °C

Query: melting point; subject: CCOc1ccc(Cl)cc1NC(=O)Nc1ccc(N2CCN(C(=O)Nc3ccc(C)cc3Cl)CC2)cc1 124 to 126 °C

Query: melting point; subject: CCOc1ccc(F)cc1NC(=O)Nc1ccc(N2CCN(C(=O)Nc3ccccc3C(F)(F)F)CC2)cc1 197 to 199 °C

Query: melting point; subject: CCCCc1ccc(NC(=O)Nc2ccc(N3CCN(C(=O)OC(C)(C)C)CC3)cc2)cc1 167 to 170 °C

Query: melting point; subject: CCOP(=O)(O)Cc1ccc(NC(=O)N2CCN(c3ccc(NC(=O)Nc4cc(C)ccc4OC)cc3)CC2)c(C)c1 165 to 173 °C

Query: melting point; subject: O=C(Nc1ccc2c(c1)CCN(C(=O)Nc1ccc(OCCO)cc1C(F)(F)F)C2)Nc1ccccc1F 162 to 164 °C

Query: melting point; subject: COc1ccc(C)cc1NC(=O)Nc1ccc2c(c1)CCN(C(=O)Nc1ccc(OCC(O)CO)cc1C(F)(F)F)C2 (stereo not shown) 174 to 176 °C

Query: melting point; subject: CCOc1ccc(F)cc1NC(=O)Nc1ccc(N2CCN(C(=O)Nc3c(C)cccc3Cl)CC2)cc1 197 to 199 °C

###

Measured inhibition at 0.1 µg/mL accompanies every entry in the list below.
Tested target: mouse DGAT1 (Mus musculus, UniProt Q9Z2A7)
Construct: made in house; host or cells: insect cells (High Five, Sf9, Sf21, etc.), baculovirus expression system (Invitrogen)
Sequence (Q9Z2A7 1-498): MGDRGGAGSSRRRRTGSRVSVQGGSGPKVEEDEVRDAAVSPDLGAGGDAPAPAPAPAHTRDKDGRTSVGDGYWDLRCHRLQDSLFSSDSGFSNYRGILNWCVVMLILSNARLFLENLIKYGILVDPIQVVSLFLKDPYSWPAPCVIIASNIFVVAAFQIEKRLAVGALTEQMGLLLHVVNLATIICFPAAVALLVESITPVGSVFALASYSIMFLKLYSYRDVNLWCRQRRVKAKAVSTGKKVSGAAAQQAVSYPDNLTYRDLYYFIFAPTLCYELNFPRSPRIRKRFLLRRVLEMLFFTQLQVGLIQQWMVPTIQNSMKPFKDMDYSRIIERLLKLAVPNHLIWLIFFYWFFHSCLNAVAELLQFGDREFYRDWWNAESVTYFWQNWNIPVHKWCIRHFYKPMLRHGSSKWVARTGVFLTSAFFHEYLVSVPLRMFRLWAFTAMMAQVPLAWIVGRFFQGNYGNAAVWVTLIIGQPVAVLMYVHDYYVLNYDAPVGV
Assay remarks: DGAT1 inhibitory effect test (microsome fraction, [14C]-oleoyl-CoA, triglyceride radioactivity by TLC)
Type: biochemical
Experimental parameters: 0.5 h; concentration of the test compound 0.1 μg/ml; mouse DGAT1 microsomes, 23° C., 30 minutes; read-out: Inhibitory ratio

O=C(Nc1ccc(N2CCN(C(=O)Nc3ccc(OCCO)cc3C(F)(F)F)CC2)nc1)Nc1ccccc1F [Example 222] : ≥ 50%
O=C(Nc1ccc(N2CCN(C(=O)Nc3ccc(OCCO)cc3C(F)(F)F)CC2)cc1)Nc1cccc2c1OCCO2 [Example 244] : ≥ 50%
COc1ccccc1NC(=O)Nc1ccc2c(c1)CCN(C(=O)Nc1ccc(OCC(O)CO)cc1Cl)C2 (stereo not drawn) [Example 284] : ≥ 50%
CCOc1cccc(NC(=O)Nc2ccc(N3CCN(C(=O)Nc4cc(OCCO)ccc4Cl)CC3)cc2)c1 [Example 233] : ≥ 50%
COc1ccc(Cl)cc1NC(=O)Nc1ccc(N2CCN(C(=O)Nc3c(F)cccc3F)CC2)cc1 [Example 77] : ≥ 50%

Identify the measured inhibition at 0.1 µg/mL of COc1ccc(C)cc1NC(=O)Nc1ccc(N2CCN(C(=O)Oc3c(C)cccc3Cl)CC2)cc1 [Example 197] for mouse DGAT1 (Mus musculus, UniProt Q9Z2A7). ≥ 50%

Identify the measured inhibition at 0.1 µg/mL of CCOc1ccccc1NC(=O)Nc1ccc(N2CCN(C(=O)Nc3c(F)cccc3C(F)(F)F)CC2)cc1 [Example 117] for mouse DGAT1 (Mus musculus, UniProt Q9Z2A7). ≥ 50%

###

Readout label: melting point

CCOc1ccc(Cl)cc1NC(=O)Nc1ccc(N2CCN(C(=O)OC(C)(C)C)CC2)cc1 : 165 to 167 °C
COc1ccccc1NC(=O)Nc1ccc(C2=CCN(C(=O)Nc3ccc(OCCO)cc3Cl)CC2)cc1 : 120 to 125 °C
COc1ccc(C)cc1NC(=O)Nc1ccc(N2CCN(C(=O)Nc3c(C)cccc3Br)CC2)cc1 : 221 to 222 °C
CCOc1cccc(NC(=O)Nc2ccc(N3CCN(C(=O)Nc4cc(OCCO)ccc4Cl)CC3)nc2)c1 : 140 to 143 °C
CCOc1ccc(C)cc1NC(=O)Nc1ccc(N2CCN(C(=O)Nc3ccc(C)cc3Cl)CC2)cc1 : 119 to 122 °C

Query: melting point; subject: COc1ccc(C)cc1NC(=O)Nc1ccc(N2CCN(C(=O)Nc3ccc(Cl)cc3C)CC2)cc1 199 to 201 °C

Query: melting point; subject: COc1ccc(Cl)cc1NC(=O)Nc1ccc(N2CCN(C(=O)Nc3ncccc3C)CC2)cc1 163 to 165 °C

Query: melting point; subject: COc1ccc(C)cc1NC(=O)Nc1ccc(N2CCCN(C(=O)Nc3ccc(OCCO)cc3C(F)(F)F)CC2)cc1 118 to 120 °C

Query: melting point; subject: COc1ccc(C)cc1NC(=O)Nc1ccc(N2CCN(Cc3ccccc3)CC2)cc1 184 to 186 °C

Query: melting point; subject: CCOc1ccc(Cl)cc1NC(=O)Nc1ccc(N2CCN(C(=O)Nc3c(C)cccc3C)CC2)cc1 144 to 146 °C

Query: melting point; subject: Cc1ccc(C)c(NC(=O)Nc2ccc(N3CCN(C(=O)Nc4c(C)cccc4Cl)CC3)cc2)c1 251 to 253 °C

Query: melting point; subject: CCOc1ccc(F)cc1NC(=O)Nc1ccc(N2CCN(C(=O)Nc3c(Cl)cccc3Cl)CC2)cc1 212 to 214 °C

Query: melting point; subject: COc1ccc(C)cc1NC(=O)Nc1ccc(N2CCN(C(=O)Nc3cccc(C)c3C)CC2)cc1 217 to 219 °C

Query: melting point; subject: COc1ccc(C)cc1NC(=O)Nc1ccc(C2=CCN(C(=O)Nc3ccc(OCCO)cc3C(F)(F)F)CC2)cc1 150 to 153 °C

Query: melting point; subject: COc1ccc(Cl)cc1NC(=O)Nc1ccc(N2CCN(C(=O)OC(C)(C)C)CC2)cc1 205 °C

Query: melting point; subject: Cc1cccc(Cl)c1NC(=O)N1CCN(c2ccc(NC(=O)Nc3ccc(C(C)C)cc3)cc2)CC1 278 to 280 °C

Query: melting point; subject: COc1ccc(C)cc1NC(=O)Nc1ccc2c(c1)CCN(C(=O)Nc1ccc(OCC(O)CO)cc1Cl)C2 (stereo not shown) 119 to 121 °C

###

Tested target: mouse DGAT1 (Mus musculus, UniProt Q9Z2A7)
Construct: made in house; host or cells: insect cells (High Five, Sf9, Sf21, etc.), baculovirus expression system (Invitrogen)
Assay remarks: DGAT1 inhibitory effect test (microsome fraction, [14C]-oleoyl-CoA, triglyceride radioactivity by TLC)
Format: biochemical
Experimental parameters: 0.5 h; concentration of the test compound 0.1 μg/ml; mouse DGAT1 microsomes, 23° C., 30 minutes; read-out: Inhibitory ratio
Measured inhibition at 0.1 µg/mL accompanies every entry in the list below.

CCOc1ccc(Cl)cc1NC(=O)Nc1ccc(N2CCN(C(=O)Nc3c(F)cccc3C(F)(F)F)CC2)cc1 [Example 105] : ≥ 50%
COc1ccc(C)cc1NC(=O)Nc1ccc2c(c1)CCN(C(=O)Oc1ccc(CCO)cc1Cl)C2 [Example 396] : ≥ 50%
COc1ccc(C)cc1NC(=O)Nc1ccc(N2CCN(C(=O)Nc3ncccc3C)CC2)nc1 [Example 301] : ≥ 50%
COc1ccc(C)cc1NC(=O)Nc1ccc(N2CCN(C(=O)Nc3c(C)cccc3C)CC2)nc1 [Example 138] : ≥ 50%
COc1ccc(C)cc1NC(=O)Nc1ccc(N2CCN(C(=O)Nc3c(C)cccc3OC)CC2)cc1 [Example 170] : ≥ 50%

Query: inhibition at 0.1 µg/mL; subject: COc1ccc(NC(=O)N2CCN(c3ccc(NC(=O)Nc4cc(Cl)ccc4OC)cc3)CC2)c(C)c1 [Example 109] ≥ 50%

Query: inhibition at 0.1 µg/mL; subject: COc1ccc(C)cc1NC(=O)Nc1ccc(N2CCN(C(=O)Nc3c(C)cccc3C)CC2)cc1 [Example 62] ≥ 50%

Query: inhibition at 0.1 µg/mL; subject: Cc1ccccc1NC(=O)Nc1ccc(N2CCN(C(=O)Nc3c(C)cccc3Cl)CC2)cc1 [Example 127] ≥ 50%

Origin of values: patent US20070249620A1
